Give measured IC50 for each item. Keep answers brief.
# Test system: MV-4-11 cells
# Assay remarks: AML cell viability assay (RealTime-Glo)
# Type: cell-based
# Run parameters: Homo sapiens, MV4-11; IC50 class; MV-4-11 cells, RealTime-Glo after 44 hrs of treatment (TABLE 5); read-out: Cell viability classification

Field: IC50. Fill in for each record below.
1. O=C1CCC(N2Cc3c(cccc3N(CCC3CC3)[C@H]3CC[C@H](NCCOC(F)(F)F)CC3)C2=O)C(=O)N1 (stereo partly drawn) [Compound 647]
2. CN1CCC(CN(CCC2CC2)c2cccc3c2CN(C2CCC(=O)NC2=O)C3=O)CC1 (stereo not drawn) [Compound 714]
3. O=C1CCC(N2Cc3c(cccc3N(CCC3CC3)[C@H]3CC[C@H](N4CCC(C(F)(F)F)C4)CC3)C2=O)C(=O)N1 (stereo partly drawn) [Compound 672]
4. O=C1CCC(N2Cc3c(cccc3N(CCC3CC3)[C@H]3CC[C@H](NCC(F)(F)C(F)(F)F)CC3)C2=O)C(=O)N1 (stereo partly drawn) [Compound 644]

// result
["< 100 nM", "> 1000 nM", "100 to 1000 nM", "> 1000 nM"]

Field: IC50. Fill in for each record below.
1. O=C1CCC(N2Cc3c(cccc3N(CC3CC(F)(F)C3)[C@H]3CC[C@H](NCCC(F)(F)F)CC3)C2=O)C(=O)N1 (stereo partly drawn) [Compound 650]
2. O=C1CCC(N2Cc3c(cccc3N(CCC3CC3)[C@H]3CC[C@H](N4CCCC4)CC3)C2=O)C(=O)N1 (stereo partly drawn) [Compound 669]

// result
1: 100 to 1000 nM; 2: 100 to 1000 nM

* * *

# System: MV-4-11 cells
# Assay remarks: AML cell viability assay (RealTime-Glo)
# Format: cell-based
# Run parameters: Homo sapiens, MV4-11; IC50 class; MV-4-11 cells, RealTime-Glo after 44 hrs of treatment (TABLE 3); read-out: Cell viability classification
pIC50: −log10 of the molar value. Counter-ions that a name gives are not always drawn.
Give measured pIC50 for each item. Keep answers brief.

Consider the worked cases shown below.
CCCCCN(c1cccc2c1CN(C1CCC(=O)NC1=O)C2=O)[C@H]1CC[C@H](C(N)=O)CC1 (stereo partly shown) [Compound 305]	> 7.00
O=C1CCC(N2Cc3c(cccc3N(CCC3CC3)[C@H]3CC[C@@H](NCC(F)F)CC3)C2=O)C(=O)N1 (stereo partly shown) [Compound 539A]	> 7.00
N[C@H]1CC[C@H](N(CCCN2CCOCC2)c2cccc3c2CN(C2CCC(=O)NC2=O)C3=O)CC1 (stereo partly shown) [Compound 246, dihydrochloride]	< 6.00
O=C1CCC(N2Cc3c(cccc3N(CCC3CC3)[C@H]3CC[C@H](NCC(=O)N4CCC4)CC3)C2=O)C(=O)N1 (stereo partly shown) [Compound 546]	> 7.00
CC(=O)N[C@H]1CC[C@H](N(CCCCN)c2cccc3c2CN(C2CCC(=O)NC2=O)C3=O)CC1 (stereo partly shown) [Compound 273]	< 6.00
CCCCCN(c1cccc2c1CN(C1CCC(=O)NC1=O)C2=O)[C@H]1CC[C@H](NCC)CC1 (stereo partly shown) [Compound 309, HCl]	> 7.00

Please turn your attention to the following entry.
// query Name the recorded pIC50 for CCCCCN(CCCCNCCC(C)C)c1cccc2c1CN(C1CCC(=O)NC1=O)C2=O (stereo not shown) [Compound 167, HCl] .
// result 6.00 to 7.00

* * *

Give measured DC50 for each item. Keep answers brief.
# Target system: CK1α (Homo sapiens, UniProt P48729+Q96SW2)
# Sequence (P48729 whole entry): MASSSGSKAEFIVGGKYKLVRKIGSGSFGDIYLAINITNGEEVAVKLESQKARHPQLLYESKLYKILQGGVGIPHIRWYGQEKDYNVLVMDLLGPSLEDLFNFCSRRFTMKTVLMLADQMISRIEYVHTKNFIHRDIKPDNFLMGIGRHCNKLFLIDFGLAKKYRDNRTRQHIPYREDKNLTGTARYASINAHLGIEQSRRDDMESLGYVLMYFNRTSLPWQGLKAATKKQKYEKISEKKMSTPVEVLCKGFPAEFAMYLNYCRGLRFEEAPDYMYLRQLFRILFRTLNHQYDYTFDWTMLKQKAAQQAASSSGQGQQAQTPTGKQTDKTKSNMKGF
# Sequence (Q96SW2 whole entry): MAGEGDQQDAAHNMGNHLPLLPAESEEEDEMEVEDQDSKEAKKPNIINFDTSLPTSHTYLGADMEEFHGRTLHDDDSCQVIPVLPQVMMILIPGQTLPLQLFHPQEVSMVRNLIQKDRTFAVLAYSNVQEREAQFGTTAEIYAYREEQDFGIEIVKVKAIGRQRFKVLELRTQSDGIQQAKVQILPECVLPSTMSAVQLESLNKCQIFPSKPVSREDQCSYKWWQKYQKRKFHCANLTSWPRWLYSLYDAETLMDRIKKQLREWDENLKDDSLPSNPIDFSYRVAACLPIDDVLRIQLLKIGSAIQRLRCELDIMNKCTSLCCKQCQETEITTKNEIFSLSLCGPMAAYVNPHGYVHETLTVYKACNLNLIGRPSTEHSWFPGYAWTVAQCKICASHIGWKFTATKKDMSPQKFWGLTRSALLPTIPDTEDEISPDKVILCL
# Sequence (Q16531 whole entry partner): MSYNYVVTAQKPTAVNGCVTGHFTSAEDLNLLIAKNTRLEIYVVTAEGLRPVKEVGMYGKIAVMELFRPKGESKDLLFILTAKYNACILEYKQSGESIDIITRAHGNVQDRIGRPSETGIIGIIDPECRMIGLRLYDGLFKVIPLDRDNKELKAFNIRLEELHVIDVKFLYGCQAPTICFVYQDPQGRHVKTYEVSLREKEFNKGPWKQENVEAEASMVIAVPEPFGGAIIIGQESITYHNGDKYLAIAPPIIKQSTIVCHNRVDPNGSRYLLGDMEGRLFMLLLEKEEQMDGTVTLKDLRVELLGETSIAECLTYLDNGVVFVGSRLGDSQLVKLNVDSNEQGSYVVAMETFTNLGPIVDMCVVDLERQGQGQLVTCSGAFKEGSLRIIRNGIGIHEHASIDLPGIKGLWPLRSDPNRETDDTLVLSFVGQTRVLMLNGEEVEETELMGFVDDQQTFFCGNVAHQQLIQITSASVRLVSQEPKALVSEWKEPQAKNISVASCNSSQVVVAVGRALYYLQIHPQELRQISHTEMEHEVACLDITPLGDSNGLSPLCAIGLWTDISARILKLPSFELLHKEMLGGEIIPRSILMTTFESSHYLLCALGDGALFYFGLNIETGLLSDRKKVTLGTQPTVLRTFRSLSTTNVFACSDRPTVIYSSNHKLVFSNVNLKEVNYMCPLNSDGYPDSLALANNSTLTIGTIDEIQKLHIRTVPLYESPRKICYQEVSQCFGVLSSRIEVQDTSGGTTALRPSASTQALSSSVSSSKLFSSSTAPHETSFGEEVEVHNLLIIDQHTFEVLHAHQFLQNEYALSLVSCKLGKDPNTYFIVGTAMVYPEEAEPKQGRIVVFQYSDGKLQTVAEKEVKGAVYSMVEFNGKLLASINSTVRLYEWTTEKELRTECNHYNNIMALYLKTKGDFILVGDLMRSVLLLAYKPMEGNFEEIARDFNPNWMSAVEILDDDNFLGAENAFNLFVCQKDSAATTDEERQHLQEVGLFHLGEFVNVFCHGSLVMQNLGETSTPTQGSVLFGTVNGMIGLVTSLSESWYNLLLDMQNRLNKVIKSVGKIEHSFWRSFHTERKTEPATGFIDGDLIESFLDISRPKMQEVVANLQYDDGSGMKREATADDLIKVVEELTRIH
# Assay remarks: CK1α HiBiT assay in CK1a_HiBiT_Jurkat cells
# Assay type: cell-based
# Run parameters: DC50 class, 16 hours, Nano-Glo HiBiT Lytic Detection, read-out: CK1α degradation classification
Where a name gives a salt, the structure may show the parent alone.

Consider the worked cases shown below.
CN(CCC(F)(F)F)[C@H]1CC[C@@H](N(CCC2CC2)c2cccc3c2CN(C2CCC(=O)NC2=O)C3=O)CC1 (some centres unmarked) [Compound 682A]	100 to 1000 nM
CN(CCCC(F)(F)F)[C@H]1CC[C@@H](N(CCC2CC2)c2cccc3c2CN(C2CCC(=O)NC2=O)C3=O)CC1 (some centres unmarked) [Compound 681A]	100 to 1000 nM
O=C1CCC(N2Cc3c(cccc3N(CCC3CC3)[C@H]3CC[C@H](N4CCC(F)(F)C4)CC3)C2=O)C(=O)N1 (some centres unmarked)	≤ 100 nM
COCCN(C)[C@H]1CC[C@@H](N(CCC2CC2)c2cccc3c2CN(C2CCC(=O)NC2=O)C3=O)CC1 (some centres unmarked) [Compound 680A]	100 to 1000 nM
O=C1CCC(N2Cc3c(cccc3N(CC3CC(F)(F)C3)[C@H]3CC[C@H](NCC4(C(F)(F)F)CC4)CC3)C2=O)C(=O)N1 (some centres unmarked)	100 to 1000 nM

Field: DC50. Fill in for each record below.
1. O=C1CCC(N2Cc3c(cccc3N(CCC3CC3)[C@H]3CC[C@@H](NCCCC(F)(F)F)CC3)C2=O)C(=O)N1 (some centres unmarked) [Compound 642A]
2. NC(=O)C12CC(N(CCC3CC3)c3cccc4c3CN(C3CCC(=O)NC3=O)C4=O)(C1)C2 (centres unmarked)
3. O=C1CCC(N2Cc3c(cc(F)cc3N(CCC3CC3)[C@H]3CC[C@H](NCC4(C(F)(F)F)CC4)CC3)C2=O)C(=O)N1 (some centres unmarked)
4. O=C1CCC(N2Cc3c(cccc3N(CC3CC(F)(F)C3)[C@H]3CC[C@@H](NCC4(C(F)(F)F)CC4)CC3)C2=O)C(=O)N1 (some centres unmarked) [Compound 655A]

// result
1: ≤ 100 nM; 2: ≤ 100 nM; 3: ≤ 100 nM; 4: > 1000 nM

Field: DC50. Fill in for each record below.
1. CC1(C)CC(CN(c2cccc3c2CN(C2CCC(=O)NC2=O)C3=O)[C@H]2CC[C@H](NCCC(F)(F)F)CC2)C1 (single isomer, unassigned) [Compound 652A]
2. O=C1CCC(N2Cc3c(cccc3N(CCC3CC3)[C@H]3CC[C@H](N4CCC(F)C4)CC3)C2=O)C(=O)N1 (some centres unmarked)
3. NCC12CC(N(CCC3CC3)c3cccc4c3CN(C3CCC(=O)NC3=O)C4=O)(C1)C2 (centres unmarked)
4. O=C1CCC(N2Cc3c(cccc3N(CCC3CC3)[C@H]3CC[C@@H](N4CCCC4)CC3)C2=O)C(=O)N1 (some centres unmarked) [Compound 669A]
5. CC1(C)CC(CN(c2cccc3c2CN(C2CCC(=O)NC2=O)C3=O)[C@H]2CC[C@H](NCCC(F)(F)F)CC2)C1 (some centres unmarked) [Compound 652]
6. COCCN(C)[C@H]1CC[C@H](N(CCC2CC2)c2cccc3c2CN(C2CCC(=O)NC2=O)C3=O)CC1 (some centres unmarked)

// result
1. > 1000 nM
2. ≤ 100 nM
3. ≤ 100 nM
4. 100 to 1000 nM
5. ≤ 100 nM
6. ≤ 100 nM

Field: DC50. Fill in for each record below.
1. O=C1CCC(N2Cc3c(cccc3N(CCC3CC3)C34CC(CNCCC(F)(F)F)(C3)C4)C2=O)C(=O)N1 (centres unmarked)
2. CN(CCCC(F)(F)F)[C@H]1CC[C@H](N(CCC2CC2)c2cccc3c2CN(C2CCC(=O)NC2=O)C3=O)CC1 (some centres unmarked)
3. O=C1CCC(N2Cc3c(cccc3N(CCC3CC3)[C@H]3CC[C@H](NC45CC(C(F)(F)F)(C4)C5)CC3)C2=O)C(=O)N1 (some centres unmarked)
4. CC1(C)CC(CN(c2cccc3c2CN(C2CCC(=O)NC2=O)C3=O)[C@H]2CC[C@H](NCC3(C(F)(F)F)CC3)CC2)C1 (some centres unmarked)
5. O=C1CCC(N2Cc3c(cccc3N(CC3CC4(CCC4)C3)[C@H]3CC[C@H](NCC4(C(F)(F)F)CC4)CC3)C2=O)C(=O)N1 (some centres unmarked)
6. CN(CCC(F)F)[C@H]1CC[C@H](N(CCC2CC2)c2cccc3c2CN(C2CCC(=O)NC2=O)C3=O)CC1 (some centres unmarked)
7. O=C1CCC(N2Cc3c(cccc3N(CC3CC4(CCC4)C3)[C@H]3CC[C@@H](NCC4(C(F)(F)F)CC4)CC3)C2=O)C(=O)N1 (some centres unmarked) [Compound 656A]
8. O=C1CCC(N2Cc3c(cccc3N(CCC3CC3)C3CCC(N[C@H]4C[C@@H]4C(F)(F)F)CC3)C2=O)C(=O)N1 (some centres unmarked) [Compound 678, Trifluoroacetate]

// result
["≤ 100 nM", "≤ 100 nM", "≤ 100 nM", "100 to 1000 nM", "100 to 1000 nM", "≤ 100 nM", "> 1000 nM", "100 to 1000 nM"]

Field: DC50. Fill in for each record below.
1. O=C1CCC(N2Cc3c(cccc3N(CCC3CC3)[C@H]3CC[C@@H](N4CCOCC4)CC3)C2=O)C(=O)N1 (some centres unmarked) [Compound 674A]
2. O=C1CCC(N2Cc3c(cccc3N(CCC3CC3)[C@H]3CC[C@@H](N[C@H]4CC[C@@H]4C(F)(F)F)CC3)C2=O)C(=O)N1 (some centres unmarked) [Compound 675A]
3. O=C1CCC(N2Cc3c(cccc3N(CCC3CC3)[C@H]3CC[C@H](N4CCC(C(F)(F)F)C4)CC3)C2=O)C(=O)N1 (some centres unmarked)

// result
1: 100 to 1000 nM; 2: 100 to 1000 nM; 3: ≤ 100 nM

Every entry's value here was drawn from patent US20250188069A1.
